tested on: T-380 tumors; assay: Hapten biodistribution, premix protocol with bifunctional antibody ECH037.2; assay type: in vivo, nude mice; settings: 48 hours; premix with 20 µg ECH037.2
FECES by entry:

For orientation, consider the following solved cases.
compound="NC(=S)Nc1ccc(CC(CN(CC(=O)O)CC(=O)O)N(CC(=O)O)CC(=O)O)cc1 (centres unmarked) [TUBE]" value_reported="9.8% of total injected dose"
compound="O=C(O)Cc1ccc(NC(=S)Nc2ccc(CC(CN(CC(=O)O)CC(=O)O)N(CC(=O)O)CC(=O)O)cc2)cc1 (centres unmarked) [PHATUBE]" value_reported="34.9% of total injected dose"
compound="NCCNC(=S)Nc1ccc(CC(CN(CC(=O)O)CC(=O)O)N(CC(=O)O)CC(=O)O)cc1 (centres unmarked) [NUBE]" value_reported="12.9% of total injected dose"

Q) Respond only with FECES recorded for O=C(O)CN(CC(=O)O)CC(Cc1ccc(NC(=S)Nc2ccccc2)cc1)N(CC(=O)O)CC(=O)O (centres unmarked) [PHTUBE]
A) 21.7% of total injected dose

Q) Respond only with FECES recorded for CCCCCCCCNC(=S)Nc1ccc(CC(CN(CC(=O)O)CC(=O)O)N(CC(=O)O)CC(=O)O)cc1 (centres unmarked) [OTUBE]
A) 68.4% of total injected dose

----------
system: T-380 tumors; assay: Hapten biodistribution, premix protocol with bifunctional antibody ECH037.2; type: in vivo, nude mice; conditions: 24 hours; premix with 20 µg ECH037.2
Measure: % DOSE PER GRAM, KIDNEY (% DOSE PER GRAM)
# number only, unit % DOSE PER GRAM dropped from output

compound="O=C(O)Cc1ccc(NC(=S)Nc2ccc(CC(CN(CC(=O)O)CC(=O)O)N(CC(=O)O)CC(=O)O)cc2)cc1 (stereo not shown)" value_reported=1.2

The record that follows has no % DOSE PER GRAM, KIDNEY shown yet.
Q) Respond only with % DOSE PER GRAM, KIDNEY recorded for CCNC(=S)Nc1ccc(CC(CN(CC(=O)O)CC(=O)O)N(CC(=O)O)CC(=O)O)cc1 (stereo not shown)
A) 2.4

----------
tested on: T-380 tumors; assay: Hapten biodistribution, premix protocol with bifunctional antibody ECH037.2; assay type: in vivo, nude mice; details: 48 hours; premix with 20 µg ECH037.2
FECES by entry:

molecule="CCNC(=S)Nc1ccc(CC(CN(CC(=O)O)CC(=O)O)N(CC(=O)O)CC(=O)O)cc1 (stereo not drawn)" value_reported="15.2% of total injected dose"
molecule="CCCCNC(=S)Nc1ccc(CC(CN(CC(=O)O)CC(=O)O)N(CC(=O)O)CC(=O)O)cc1 (stereo not drawn)" value_reported="26.5% of total injected dose"

Q) Respond only with FECES recorded for CC(=O)NC(CCCCNC(=S)Nc1ccc(CC(CN(CC(=O)O)CC(=O)O)N(CC(=O)O)CC(=O)O)cc1)C(N)=O (stereo not drawn)
A) 13.8% of total injected dose

----------
system: T-380 tumors; test: Hapten biodistribution, premix protocol with bifunctional antibody ECH037.2; format: in vivo, nude mice; details: 24 hours; premix with 20 µg ECH037.2
Hi! Could you tag entries with % DOSE PER GRAM, KIDNEY below 3 % DOSE PER GRAM as label 1, and those at or above as label 0? Much appreciated.

Q) Answer whether the molecule CC(=O)NC(CCCCNC(=S)Nc1ccc(CC(CN(CC(=O)O)CC(=O)O)N(CC(=O)O)CC(=O)O)cc1)C(N)=O (centres unmarked) has % DOSE PER GRAM, KIDNEY strictly less than 3 % DOSE PER GRAM
A) label 0

Q) Answer whether the molecule O=C(O)CCCNC(=S)Nc1ccc(CC(CN(CC(=O)O)CC(=O)O)N(CC(=O)O)CC(=O)O)cc1 (centres unmarked) has % DOSE PER GRAM, KIDNEY strictly less than 3 % DOSE PER GRAM
A) label 1

Q) Answer whether the molecule O=C(O)CCCC(=O)NCCNC(=S)Nc1ccc(CC(CN(CC(=O)O)CC(=O)O)N(CC(=O)O)CC(=O)O)cc1 (centres unmarked) has % DOSE PER GRAM, KIDNEY strictly less than 3 % DOSE PER GRAM
A) label 1

Q) Answer whether the molecule CCCCCCCCNC(=S)Nc1ccc(CC(CN(CC(=O)O)CC(=O)O)N(CC(=O)O)CC(=O)O)cc1 (centres unmarked) has % DOSE PER GRAM, KIDNEY strictly less than 3 % DOSE PER GRAM
A) label 1

Q) Answer whether the molecule O=C(O)CN(CC(=O)O)CC(Cc1ccc(NC(=S)Nc2ccccc2)cc1)N(CC(=O)O)CC(=O)O (centres unmarked) has % DOSE PER GRAM, KIDNEY strictly less than 3 % DOSE PER GRAM
A) label 1
